# System: S. aureus ATCC25923 C622
# Experiment Notes: MIC assay, microtitre broth dilution
# Assay type: cell-based
# Assay Context: S. aureus ATCC25923 C622 wt, Gram +; Mueller Hinton broth, 37° C., 24 h

| Molecule | Target | Minimum inhibitory concentration |
| --- | --- | --- |
| NC(=O)NO [hydroxyurea] | S. aureus ATCC25923 C622 | N |
| CN(Cc1cnc2nc(N)nc(N)c2n1)c1ccc(C(=O)N[C@@H](CCC(=O)O)C(=O)O)cc1 [methotrexate] | S. aureus ATCC25923 C622 | 10^−5 molar |
| Sc1ncnc2nc[nH]c12 | S. aureus ATCC25923 C622 | N |

###

# Test system: S. aureus ATCC25923 C622
# Experiment Notes: MIC assay, microtitre broth dilution
# Type: cell-based
# Assay Context: S. aureus ATCC25923 C622 wt, Gram +; Mueller Hinton broth, 37° C., 24 h

| Molecule | Minimum inhibitory concentration |
| --- | --- |
| Nc1ccn([C@@H]2O[C@H](CO)[C@@H](O)[C@@H]2O)c(=O)n1 | N |
| CC[C@@]1(O)C(=O)OCc2c1cc1n(c2=O)Cc2cc3ccccc3nc2-1 | N |
| Nc1ncnc2c1ccn2[C@@H]1O[C@H](CO)[C@@H](O)[C@H]1O | N |
| Sc1ncc2[nH]cnc2n1 | N |
| O=C1c2c(O)ccc(O)c2C(=O)c2c(NCCNCCO)ccc(NCCNCCO)c21 | 10^−5 molar |
| COc1cc([C@@H]2c3cc4c(cc3[C@@H](O[C@@H]3O[C@@H]5CO[C@@H](C)O[C@H]5[C@H](O)[C@H]3O)[C@H]3COC(=O)[C@H]23)OCO4)cc(OC)c1O [etoposide] | 10^−5 molar |
| O=c1[nH]cc(F)c(=O)[nH]1 | 10^−7 molar |
| COc1cccc2c1C(=O)c1c(O)c3c(c(O)c1C2=O)C[C@@](O)(C(=O)CO)C[C@@H]3O[C@H]1C[C@H](N)[C@H](O)[C@H](C)O1 | 10^−5 molar |

###

# Tested on: S. pyogenes C721
# Experiment Notes: MIC assay, microtitre broth dilution
# Format: cell-based
# Assay Context: S. pyogenes C721 wt, Gram +; Todd Hewitt broth, 37° C., 24 h
# Description: MIC assays were conducted essentially as described by Amsterdam, D. 1996, “Susceptibility testing of antimicrobials in liquid media,” p. 52-111. In Loman, V., ed. Antibiotics in Laboratory Medicine, 4th ed. Williams and Wilkins, Baltimore, Md. […]

| Molecule | Minimum inhibitory concentration |
| --- | --- |
| Nc1ncnc2c1ccn2[C@@H]1O[C@H](CO)[C@@H](O)[C@H]1O | N |
| Sc1ncnc2nc[nH]c12 | N |
| CN(Cc1cnc2nc(N)nc(N)c2n1)c1ccc(C(=O)N[C@@H](CCC(=O)O)C(=O)O)cc1 [methotrexate] | 10^−6 molar |
| COc1cc([C@@H]2c3cc4c(cc3[C@@H](O[C@@H]3O[C@@H]5CO[C@@H](C)O[C@H]5[C@H](O)[C@H]3O)[C@H]3COC(=O)[C@H]23)OCO4)cc(OC)c1O [etoposide] | 10^−5 molar |
| CC[C@@]1(O)C(=O)OCc2c1cc1n(c2=O)Cc2cc3ccccc3nc2-1 | N |
| O=c1[nH]cc(F)c(=O)[nH]1 | 10^−4 molar |
| NC(=O)NO [hydroxyurea] | 10^−4 molar |
| COc1cccc2c1C(=O)c1c(O)c3c(c(O)c1C2=O)C[C@@](O)(C(=O)CO)C[C@@H]3O[C@H]1C[C@H](N)[C@H](O)[C@H](C)O1 | 10^−7 molar |
| Nc1ccn([C@@H]2O[C@H](CO)[C@@H](O)[C@@H]2O)c(=O)n1 | N |
| Sc1ncc2[nH]cnc2n1 | N |
| O=C1c2c(O)ccc(O)c2C(=O)c2c(NCCNCCO)ccc(NCCNCCO)c21 | 10^−6 molar |

Data provenance: patent US20110264139A1
